Source of measurements: paper PMC6112376

Test system: rat primary hepatocytes
quantity: MMP assays efficacy (%) Rat Hepatocytes

In the examples that follow, each entry is paired with its recorded MMP assays efficacy (%) Rat Hepatocytes.
compound	MMP assays efficacy (%) Rat Hepatocytes
Nc1ccc(N)cc1	inactive
CC(=O)O[C@H]1C[C@H](O[C@H]2[C@@H](O)C[C@H](O[C@H]3[C@@H](O)C[C@H](OC4CC[C@@]5(C)[C@H](CC[C@@H]6[C@@H]5CC[C@]5(C)[C@@H](C7=CC(=O)OC7)CC[C@]65O)C4)O[C@@H]3C)O[C@@H]2C)O[C@H](C)[C@H]1O[C@@H]1O[C@H](CO)[C@@H](O)[C@H](O)[C@H]1O (stereo partly drawn) [Lanatoside A]	inactive
C=C(C)CN(CC)c1c([N+](=O)[O-])cc(C(F)(F)F)cc1[N+](=O)[O-]	inactive
C[C@@H]1O[C@@H](O[C@H]2C[C@@H](O)[C@]3(CO)[C@H]4[C@H](O)C[C@]5(C)[C@@H](C6=CC(=O)OC6)CC[C@]5(O)[C@@H]4CC[C@]3(O)C2)[C@H](O)[C@H](O)[C@H]1O	inactive
O=C(NC(=O)c1c(F)cccc1F)Nc1ccc(OC(F)(F)C(F)OC(F)(F)F)c(Cl)c1 (stereo not drawn)	inactive

Continue with the compound presented below.
(Q) Given the compound N#CC(C#N)=NNc1cccc(Cl)c1 [Carbonyl cyanide chlorophenylhydrazone] , what is its reported MMP assays efficacy (%) Rat Hepatocytes?
(A) inactive

====

Tested on: rat primary hepatocytes
Structures can show the parent of a compound that is named as a salt.
# note: boundary value -60% maps to Criterion not met; MMP assays efficacy (%) Rat Hepatocytes below it maps to Criterion met

molecule	category_label
Oc1c(Cl)cc(Cl)cc1Sc1cc(Cl)cc(Cl)c1O [Bithionol]	Criterion met
O=C=Nc1ccc(Cl)cc1 [4-Chlorophenyl isocyanate]	Criterion met
Nc1ccc(-c2ccc(N)c(N)c2)cc1N [3,3',4,4'-Tetraaminobiphenyl tetrahydrochloride]	Criterion not met
COC(=O)[C@]12CCC(C)(C)C[C@H]1[C@H]1C(=O)C=C3[C@@]4(C)C=C(C#N)C(=O)C(C)(C)[C@@H]4CC[C@@]3(C)[C@]1(C)CC2	Criterion met
COP(=S)(OC)Oc1c(Cl)cc(C)cc1Cl	Criterion met

(Q) Lab log: compare recorded MMP assays efficacy (%) Rat Hepatocytes with -60%; is it strictly lower for CC(C)(C)c1cc(O)c(C(C)(C)C)cc1O ?
(A) Criterion met

(Q) Lab log: compare recorded MMP assays efficacy (%) Rat Hepatocytes with -60%; is it strictly lower for O=C(c1ccc(OCCN2CCCCC2)cc1)c1c(-c2ccc(O)cc2)sc2cc(O)ccc12 [Raloxifene] ?
(A) Criterion met

(Q) Lab log: compare recorded MMP assays efficacy (%) Rat Hepatocytes with -60%; is it strictly lower for CC1(C)[C@@H](O)CC[C@]2(C)[C@H]3C(=O)C=C4[C@@H]5C[C@@](C)(C(=O)O)CC[C@]5(C)CC[C@@]4(C)[C@]3(C)CC[C@@H]12 ?
(A) Criterion not met

(Q) Lab log: compare recorded MMP assays efficacy (%) Rat Hepatocytes with -60%; is it strictly lower for Cc1c(N)cccc1N ?
(A) Criterion not met

(Q) Lab log: compare recorded MMP assays efficacy (%) Rat Hepatocytes with -60%; is it strictly lower for CC1(C)[C@H](C(=O)O[C@H](C#N)c2cccc(Oc3ccccc3)c2)[C@@H]1/C=C(\Cl)C(F)(F)F ?
(A) Criterion not met

(Q) Lab log: compare recorded MMP assays efficacy (%) Rat Hepatocytes with -60%; is it strictly lower for CC(C)(C)c1cc([N+](=O)[O-])cc([N+](=O)[O-])c1O ?
(A) Criterion met

====

System: rat primary hepatocytes
test_protocol: MMP assay in rat primary hepatocytes
measurement_parameters: rat hepatocytes; mean ± SD of three experiments

compound	MMP assays efficacy (%) Rat Hepatocytes
CC(O)C(=O)O.CCOc1ccc2nc3cc(N)ccc3c(N)c2c1.O [Ethacridine lactate hydrate]	-98±24%
O=C(c1ccccc1)c1cccc(O)c1 [Compound 3-Hydroxybenzophenone]	inactive
CCCCCCCC/C=C\CCCCCCCC(N)=O [(9Z)-Octadec-9-enamide]	inactive

====

Tested on: rat primary hepatocytes
test_protocol: MMP assay in rat primary hepatocytes
measurement_parameters: rat hepatocytes; mean ± SD of three experiments
quantity: MMP assays efficacy (%) Rat Hepatocytes

In the examples that follow, each entry is paired with its recorded MMP assays efficacy (%) Rat Hepatocytes.
compound	system_tested	MMP assays efficacy (%) Rat Hepatocytes
CCc1ccc(O)cc1	rat primary hepatocytes	inactive
CC(C)COC(=O)c1ccc(O)cc1	rat primary hepatocytes	inactive
CN(C)C(=O)Nc1ccccc1	rat primary hepatocytes	inactive
CCCCCOC(=O)c1ccc(O)cc1	rat primary hepatocytes	inactive

(Q) Given the compound Cc1cc(O)c(Cl)c(C)c1Cl , what is its reported MMP assays efficacy (%) Rat Hepatocytes?
(A) inactive

(Q) Given the compound CC(C)(C)c1ccc(O)c(O)c1 , what is its reported MMP assays efficacy (%) Rat Hepatocytes?
(A) inactive

(Q) Given the compound c1ccc2c(c1)OCC(C1=NCCN1)O2 (stereo not shown) , what is its reported MMP assays efficacy (%) Rat Hepatocytes?
(A) inactive

(Q) Given the compound CCCCCCCC[n+]1ccn(C)c1.F[P-](F)(F)(F)(F)F [1-Methyl-3-octylimidazolium hexafluorophosphate] , what is its reported MMP assays efficacy (%) Rat Hepatocytes?
(A) -86±43%

(Q) Given the compound C#C[C@]1(O)CC[C@H]2[C@@H]3CCC4=CCCC[C@@H]4[C@H]3CC[C@@]21C , what is its reported MMP assays efficacy (%) Rat Hepatocytes?
(A) inactive

====

Tested on: HepG2 cells
measurement_parameters: read-out: MMP assays IC50 (µM) HepG2; HepG2 cells; single number from one experiment
Catalogue of log10(IC50) values
Form field - Quantity: IC50; Unit: µM; Scale: log10

In the examples that follow, each entry is paired with its recorded log10(IC50).
compound	log10(IC50)
CCN=C1C=CC(=C(c2ccc(N(CC)CC)cc2)c2ccc(N(CC)CC)cc2)c2ccccc21.Cl [Basic blue 7]	-1.30
Cl.Nc1ccc2cc3ccc(N)cc3nc2c1 [Proflavin hydrochloride]	0.55
O=C=Nc1cccc(C(F)(F)F)c1 [1-Isocyanato-3-(trifluoromethyl)benzene]	0.80

Continue with the compound presented below.
(Q) Given the compound O=C(CC(=O)C(F)(F)F)c1ccccc1 [4,4,4-Trifluoro-1-phenyl-1,3-butanedione] , what is its reported log10(IC50)?
(A) 1.50

====

Tested on: HepG2 cells
test_protocol: cells
measurement_parameters: Homo sapiens, HepG2, read-out: MMP assays efficacy (%) HepG2
Counter-ions that a name gives are not always drawn.
quantity: Emax (%)
Answer format: numeric, % implied, no suffix.

In the examples that follow, each entry is paired with its recorded Emax.
compound	system_tested	Emax, %
ClC1=C(Cl)C2(Cl)C3C4C=CC(C4)C3C1(Cl)C2(Cl)Cl (stereo not shown) [Aldrin]	HepG2 cells	106
CC(=O)Oc1ccccc1C(=O)Nc1ncc([N+](=O)[O-])s1 [Nitazoxanide]	HepG2 cells	89
CC(=O)Oc1cccc2c1C(=O)c1c(OC(C)=O)cc(C(=O)O)cc1C2=O [Diacerein]	HepG2 cells	61
Nc1ccc(/N=N/c2ccc(N)cc2)cc1 [4,4'-Diaminoazobenzene]	HepG2 cells	87

(Q) Given the compound Cc1cc(Cc2cc(C)cc(C(C)(C)C)c2O)c(O)c(C(C)(C)C)c1 , what is its reported Emax?
(A) 97

(Q) Given the compound COc1cc(/C=C/C(=O)CC(=O)/C=C/c2ccc(O)c(OC)c2)ccc1O [Curcumin] , what is its reported Emax?
(A) 96

(Q) Given the compound COC(=O)N(C(=O)N1CO[C@@]2(C(=O)OC)Cc3cc(Cl)ccc3C2=N1)c1ccc(OC(F)(F)F)cc1 [Indoxacarb] , what is its reported Emax?
(A) 57

(Q) Given the compound O=c1cc(-c2ccc(O)cc2)oc2cc(O)cc(O)c12 [Apigenin] , what is its reported Emax?
(A) 88

(Q) Given the compound O=C1OC[C@H](Cc2cccc(O)c2)[C@H]1Cc1cccc(O)c1 [Enterolactone] , what is its reported Emax?
(A) 76

(Q) Given the compound Clc1ccc(C(c2ccc(Cl)cc2)C(Cl)Cl)cc1 [p,p'-DDD] , what is its reported Emax?
(A) 108

(Q) Given the compound OC1(c2ccc(Cl)c(C(F)(F)F)c2)CCN(CCCC(c2ccc(F)cc2)c2ccc(F)cc2)CC1 [Penfluridol] , what is its reported Emax?
(A) 68

(Q) Given the compound Oc1cccc(Nc2ccccc2)c1 [Compound 3-Hydroxy-N-phenylaniline] , what is its reported Emax?
(A) 110

(Q) Given the compound C/C=C(/C(=C/C)c1ccc(O)cc1)c1ccc(O)cc1 [Dienestrol] , what is its reported Emax?
(A) 84

(Q) Given the compound CC1=NN(c2ccccc2)C(=O)C1 [Compound 1-Phenyl-3-methyl-5-pyrazolone] , what is its reported Emax?
(A) 82

(Q) Given the compound CC(C)(C)c1cc(O)c(C(C)(C)C)cc1O [2,5-Di-tert-butylbenzene-1,4-diol] , what is its reported Emax?
(A) 98

(Q) Given the compound CCCN(CCC)c1c([N+](=O)[O-])cc(C(F)(F)F)cc1[N+](=O)[O-] [Trifluralin] , what is its reported Emax?
(A) 78

(Q) Given the compound O=S1(=O)OCC2C(CO1)C1(Cl)C(Cl)=C(Cl)C2(Cl)C1(Cl)Cl (stereo not shown) [Endosulfan sulfate] , what is its reported Emax?
(A) 103
